Hello, the source for this data is patent US20250223280A1, in case you need it.

Recorded Kd, one value per entry.
Target or system: IgG
Protocol description: SPR, IgG immobilised on CM5 chip, compound as analyte; value from the legend of the grade (**** = Kd <100 nM)
Bridges are numbered along the chain shown (N, C = ends). [ ]: non-standard residue; d: D form. Pro(4S-NH2) = N[C@@H]1CN[C@H](C(=O)O)C1

Below, 2 binders whose answers are already recorded.
Give its Kd value. Item: cyclo([Pro(4S-NH2)]DCAWHLGALVWCT[dP]) (disulfide 3-13; SMILES CC(C)C[C@@H]1NC(=O)[C@H](C)NC(=O)CNC(=O)[C@H](CC(C)C)NC(=O)[C@H](Cc2c[nH]cn2)NC(=O)[C@H](Cc2c[nH]c3ccccc23)NC(=O)[C@H](C)NC(=O)[C@@H]2CSSC[C@H](NC(=O)[C@H](Cc3c[nH]c4ccccc34)NC(=O)[C@H](C(C)C)NC1=O)C(=O)N[C@@H]([C@@H](C)O)C(=O)N1CCC[C@@H]1C(=O)N1C[C@@H](N)C[C@H]1C(=O)N[C@@H](CC(=O)O)C(=O)N2) [Intermediate 17]
< 100 nM

// next record cyclo(PDCAWHLGELVWCT[dP]) (disulfide 3-13; not fully specified (residue 1); also: conjugate from starting material A141) [Compound 69]
< 100 nM

Now consider a different binder.
Give its Kd value. Item: cyclo(PDCAWHLGELVWCT[dP]) (disulfide 3-13; not fully specified (residue 1); also: conjugate from starting material A40) [Compound 63]
< 100 nM
